tested on: HOP-92 NSCLC; assay: NCI tumour cell line growth inhibition, 48 h; in the data active = GI50 below about 0.43 µM; inactive = the rest
Outcome codes: class 1 = active, class 0 = inactive

molecule: Cc1cc(O)c(C2=NN(c3ccc(S(N)(=O)=O)cc3)C(/C=C/c3ccccc3)C2)cc1Cl (stereo not given)
targetOrSystem: HOP-92 NSCLC
category: class 0
//
molecule: Cc1[nH]c2cc(F)ccc2c1-c1nc2c3cccnc3c3ncccc3c2[nH]1
targetOrSystem: HOP-92 NSCLC
category: class 1
//
molecule: Cc1cccc2c3c(sc12)C(c1ccc(F)cc1)C(C#N)=C(N)O3 (stereo not given)
targetOrSystem: HOP-92 NSCLC
category: class 0
//
molecule: Cn1cc(C2=C(Nc3ccccc3)C(=O)NC2=O)c2ccccc21
targetOrSystem: HOP-92 NSCLC
category: class 0
//
molecule: COCCOCCOCc1n(Cc2ccc3ccccc3n2)c2ccccc2[n+]1Cc1ccc2ccccc2n1
targetOrSystem: HOP-92 NSCLC
category: class 1
//
molecule: COc1cc2c(c(OC)c1OC)-c1ccc(N=NC(N)=S)c(=O)cc1[C@@H](NC(C)=O)CC2
targetOrSystem: HOP-92 NSCLC
category: class 0
//
molecule: O=C1c2cccnc2C(=O)c2c1c(C(=O)OCCCN1CCCCC1)c1ccccn21
targetOrSystem: HOP-92 NSCLC
category: class 1
//
molecule: CC(=O)O[C@H]1CC[C@@]2(C)C(=C/C(=N/OCCN3CCCC3)[C@H]3[C@@H]4CC[C@H](OC(C)=O)[C@@]4(C)CC[C@@H]32)C1
targetOrSystem: HOP-92 NSCLC
category: class 0
//
molecule: Cc1nc2ccccc2nc1N=Nc1ccccc1
targetOrSystem: HOP-92 NSCLC
category: class 0
//
molecule: COc1ccc(CCN2CCC(CN(C)Cc3cnn(-c4ccccc4)c3)CC2)cc1
targetOrSystem: HOP-92 NSCLC
category: class 0

----------
system: KM20L2 colon; experiment: NCI tumour cell line growth inhibition, 48 h

compound: Cc1nc2cc(Nc3ccccc3C(=O)O)ccc2s1
targetOrSystem: KM20L2 colon
TGI: > 100 µM
--
compound: NC(=O)CC(N=Cc1nc(-c2ccccc2)oc1O)C(=O)O (stereo unspecified)
targetOrSystem: KM20L2 colon
TGI: > 100 µM
--
compound: CC(=O)OC1=CC2(OC(C)=O)CC(C)(C)C1C1C(=O)C=CC(=O)C12 (stereo unspecified)
targetOrSystem: KM20L2 colon
TGI: > 100 µM
--
compound: CCCCCCCCCCCc1c(O)c(=O)c2c(oc3c(=O)c(CCCCCCCCCCC)c(O)c(=O)c3n2-c2ccc(N(C)C)cc2)c1=O
targetOrSystem: KM20L2 colon
TGI: 38.5 µM
--
compound: CC1=Nc2c([nH]c(=S)[nH]c2=O)NC(c2c(Cl)cccc2Cl)C1 (stereo unspecified)
targetOrSystem: KM20L2 colon
TGI: 13.6 µM
--
compound: CC(C)N(C(=O)C12C3C4C1C1C2C3C41C(N)=O)C(C)C (stereo unspecified)
targetOrSystem: KM20L2 colon
TGI: > 100 µM
--
compound: Cc1ccc(NC(=O)CCc2n[nH]c(=S)o2)cc1
targetOrSystem: KM20L2 colon
TGI: > 100 µM
--
compound: C#CCN(Cc1ccc2nc(-c3ccccc3)c(N)nc2c1)c1cc(OC)c(OC)c(OC)c1
targetOrSystem: KM20L2 colon
TGI: > 100 µM
--
compound: Cc1c2c(c(C)c3c1[nH]c1ccccc13)CN(C)CC2
targetOrSystem: KM20L2 colon
TGI: 41.6 µM
--
compound: Clc1ccc(C[P+](c2ccccc2)(c2ccccc2)c2ccccc2)cc1Cl
targetOrSystem: KM20L2 colon
TGI: 13.7 µM
--
compound: O=c1c2cc3c(cc2c2cccc4c2n1CCC4)OCO3
targetOrSystem: KM20L2 colon
TGI: > 100 µM
